Here, each record is paired with measured IC50 data.
assayed system: tTA-45 (L170V) (Escherichia coli, UniProt P04483, L170V)
Sequence (P04483 other isoform, or with tags, fused parts or gaps L170V): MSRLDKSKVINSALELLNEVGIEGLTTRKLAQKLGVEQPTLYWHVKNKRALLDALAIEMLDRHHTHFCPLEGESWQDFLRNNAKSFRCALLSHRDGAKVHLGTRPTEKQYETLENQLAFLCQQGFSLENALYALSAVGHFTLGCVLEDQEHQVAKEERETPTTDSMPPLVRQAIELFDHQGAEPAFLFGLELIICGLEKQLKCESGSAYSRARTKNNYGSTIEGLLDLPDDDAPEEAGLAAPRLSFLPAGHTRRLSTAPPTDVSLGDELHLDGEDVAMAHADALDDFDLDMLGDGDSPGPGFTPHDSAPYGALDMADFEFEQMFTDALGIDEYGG
assay overview: Inducer-dependent repression of luciferase activity by tTA-45, transient transfection in HeLa cells
Enter your answer as a number in nM; do not include the unit.

query smiles: CN(C)[C@@H]1C(O)=C(C(N)=O)C(=O)[C@@]2(O)C(O)=C3C(=O)c4c(O)cccc4[C@@](C)(O)[C@H]3C[C@@H]12
unit: nM
IC50: 608

Here is the next item to consider.
Exercise: Check the records and state IC50 for C[C@H]1c2cccc(O)c2C(=O)C2=C(O)[C@]3(O)C(=O)C(C(N)=O)=C(O)[C@@H](N(C)C)[C@@H]3[C@@H](O)[C@@H]21
Key: 11.3

Where these numbers come from: patent US20050037335A1
